value_kind: melting point

Known melting point results, listed for orientation:
>>> measurement("O=C(Cc1ccc(Cl)c(Cl)c1)N1CCC2(CC1CN1CCCC1)SCCS2 (stereo not given)")
"119 to 120 °C"
>>> measurement("COCCOc1ccc(N=Nc2c(C#N)[nH]n(-c3ccccc3)c2=O)cc1S(=O)(=O)O")
"263 to 265 °C"
>>> measurement("CCCCCCC(C)(C)c1ccc(C2CC(=O)C=C(C)C2)c(OCc2ccccc2)c1 (stereo not given)")
"60 to 61 °C"
>>> measurement("CC(C)(O)[C@H](NC(=O)C(Cl)(Cl)Cl)c1ccccc1")
"97 °C"
>>> measurement("CCCc1nn(C)c2c(=O)n(CCNc3ccc(C(C)=O)cc3)c(-c3ccc(OC)c(OC)c3)nc12")
"182 to 184 °C"
>>> measurement("CCC(C)OC(=O)N1CCC(c2nc3cc(-c4ccc(-n5cnnn5)cc4F)ccc3o2)CC1 (stereo not given)")
"118 to 122 °C"

QUERY: Item CC(C)N(C=Nc1ncc(I)c(Cl)n1)C(C)C : provide melting point
RESULT: 97 to 100 °C

QUERY: Report measured melting point; entry is CN(C)C=Nc1c(Cl)cc(NCc2ccc(N(C)C)cc2Br)cc1Cl
RESULT: 135 to 137 °C

QUERY: Report melting point for CC(=O)SCC(Cc1ccccc1)C(=O)Nc1cccc(C(=O)OCCOc2ccccc2)c1 (stereo not given)
RESULT: 90 to 92 °C

QUERY: Supply measured melting point of CC(=O)Nc1nc2c(s1)C(=O)CCC2 in your reply.
RESULT: 268 to 272 °C

QUERY: Look up and state reported melting point for CC1(C)CC(Oc2nc(Cl)nc(N3C(C)(C)CCCC3(C)C)n2)CC(C)(C)N1O
RESULT: 152 to 153 °C

QUERY: Please give measured melting point of the following entry: O=c1oc(-c2ccccc2)cc(O)c1Oc1ccccc1
RESULT: 215 to 219 °C

QUERY: Please give measured melting point of the following entry: CCCCn1c(=O)c2ncn(C)c2c2cccnc21
RESULT: 198 to 202 °C

QUERY: Read the entry COC(=O)NC1=NCC(c2ccccc2F)N1C (stereo not given) and write its reported melting point.
RESULT: 153 to 155 °C

QUERY: Give melting point for CCN(CCC12CC3CC(CC(C3)C1)C2)C(=O)NCCCc1ccncc1
RESULT: 106 to 115 °C

QUERY: State its melting point for this compound: Cc1ccc(S(=O)(=O)OC2=C(Br)C(=O)c3ccc4c(c3C2=O)CCC(C)(C)O4)cc1
RESULT: 168 to 170 °C
